experiment: Toxicity in rat RBL2H3 cells; type: cell-based, RBL-2H3; conditions: read-out: MTD
Measure: MNTC (µM)
The reply should be a number in µM, with the unit left off.

> print(dat)
                                  molecule  unit.tag  experimental.value
1  CCCCCCCCCCCCCCCCOC(=O)C[n+]1csc(CCO)c1C        µM                  50

Request: Which MNTC is listed for CCCCCCCCCCCCCCCCCCOP(=O)([O-])OC1CC[N+](C)(C)CC1 [PERIFOSINE] ?
Response: 25

Request: Which MNTC is listed for `CCCCCCCCCCCCCCCCOP(=O)([O-])OCC[N+](C)(CC)CC` ?
Response: 50
